experiment: ATG_NRF2_ARE_CIS: Attagene CIS-FACTORIAL HepG2 Assay for human Nuclear Factor Erythroid 2 Related Factor 2 (NFR2) response to Antioxidant Response Elements (ARE) (AID 2282992); conditions: HepG2 Attagene ARE/NRF2 reporter, transcription factor activity; actives raise or lower the signal
Active and inactive are the calls of the source. Rule for the calls: active = hit-call score of the fitted dose curve at least 0.9, where 1 is the maximum; inactive = score below 0.9.
Use one of these outcomes when replying: active, inactive

CCC(C)c1cc([N+](=O)[O-])cc([N+](=O)[O-])c1O (centres undefined)	active
CCCN(CCC)N=O	inactive
ClC1=C(Cl)[C@]2(Cl)[C@@H]3[C@@H](Cl)[C@H]4O[C@H]4[C@@H]3C1(Cl)C2(Cl)Cl	active
O=S(=O)(O)C(F)(F)C(F)(F)C(F)(F)C(F)(F)F	inactive
O=C(NC(=O)c1c(F)cccc1F)Nc1cc(Cl)c(OC(F)(F)C(F)F)c(Cl)c1	inactive

Check the results log: what was the call for O=C(N[C@H]1CN2CCC1CC2)c1cc2ccoc2cn1 ?
inactive

Check the results log: what was the call for O=NN(c1ccccc1)c1ccccc1 ?
active

Check the results log: what was the call for O=C(O)C(F)(F)C(F)(F)C(F)(F)C(F)(F)C(F)(F)F ?
inactive

Check the results log: what was the call for Clc1ccc(Cl)cc1 ?
inactive

Check the results log: what was the call for C1CC2OC2CC1C1CO1 (centres undefined) ?
active

Check the results log: what was the call for OCC(O)CO ?
inactive

###

read-out: Macrophage colony-stimulating factor (MCSF), CSF1 (gene 1435); assay: BSK_hDFCGF_MCSF: BioMAP Diversity Plus: hDFCGF Assay for Macrophage colony-stimulating factor (MCSF) Biomarker Activity (AID 2283060); details: primary human foreskin fibroblasts; actives raise or lower the signal
Active and inactive are the calls of the source. The calls were made as follows: active = hit-call score of the fitted dose curve at least 0.9, where 1 is the maximum; inactive = score below 0.9.
Use one of these outcomes when replying: 1 (yes) for active, 0 (no) for inactive

Worked examples, 4 compounds total:
Cc1cc(O)ccc1Cl	0 (no)
CCSC(=O)N(CC)C1CCCCC1	0 (no)
O=C(NC(=O)c1cc(F)c(F)cc1Cl)Nc1cc(F)ccc1N1CCC(C(=O)O)CC1	0 (no)
CCCCCCCCCC[N+](C)(C)CCCCCCCCCC	1 (yes)

Check the results log: what was the call for CCCN(CCC)N=O ?
0 (no)

Check the results log: what was the call for O=C(N[C@H]1CN2CCC1CC2)c1cc2ccoc2cn1 ?
0 (no)

###

read-out: CD40, CD40 (gene 958); assay: BSK_SAg_CD40: BioMAP Diversity Plus: SAg Assay for CD40 Biomarker Activity (AID 2283088); settings: primary human HUVEC with PBMC; actives raise or lower the signal
The source made the active and inactive calls. The calls were made as follows: active = hit-call score of the fitted dose curve at least 0.9, where 1 is the maximum; inactive = score below 0.9.
Use one of these outcomes when replying: y for active, n for inactive

Worked examples, 5 molecules total:
ClC1=C(Cl)[C@]2(Cl)[C@@H]3[C@H]4C[C@H]([C@@H]5O[C@H]45)[C@@H]3[C@@]1(Cl)C2(Cl)Cl	y
CN(C)CCO	n
O=C(N[C@H]1CN2CCC1CC2)c1cc2ccoc2cn1	n
CCC(=O)O[C@H]1CC[C@H]2[C@@H]3CCC4=CC(=O)CC[C@]4(C)[C@H]3CC[C@]12C	y
CCCCCCCCCC[N+](C)(C)CCCCCCCCCC	y

Check the results log: what was the call for O=S(=O)(O)C(F)(F)C(F)(F)C(F)(F)C(F)(F)F ?
n

Check the results log: what was the call for Cc1cccc(C)c1N ?
n

Check the results log: what was the call for Cc1ccc(O)c(C)c1 ?
n

Check the results log: what was the call for Clc1ccc(C(Cl)(Cl)Cl)cc1 ?
n

###

assay: CCTE_Mundy_HCI_iCellGluta_NOG_NeuriteLength: CCTE's Neurite Outgrowth Assay in iCellGluta cells for Neurite Length, Mundy Lab (AID 2284318)
Results filed as inconclusive are left out. Calls of active or inactive are those of the source. The calls were made as follows: active = hit-call score of the fitted dose curve at least 0.9, where 1 is the maximum; inconclusive = response in the unintended direction; inactive = score below 0.9.
readout: AC50

O=S(=O)(O)C(F)(F)C(F)(F)C(F)(F)C(F)(F)C(F)(F)C(F)(F)F	inactive
CCOP(=S)(OCC)SCSC(C)(C)C	inactive
O=S(=O)(O)C(F)(F)C(F)(F)C(F)(F)C(F)(F)F	inactive
CO/C=C(/C(=O)OC)c1ccccc1COc1cccc(C(F)(F)F)n1	5.9 µM (active)

###

read-out: Monocyte Chemoattractant Protein-1 (MCP1), CCL2 (gene 6347); assay: BSK_LPS_MCP1: BioMAP Diversity Plus: LPS Assay for Monocyte Chemoattractant Protein-1 (MCP1) Biomarker Activity (AID 2283081); details: primary human HUVEC with PBMC; actives raise or lower the signal
Calls of active or inactive are those of the source. Rule for the calls: active = hit-call score of the fitted dose curve at least 0.9, where 1 is the maximum; inactive = score below 0.9.
Use one of these outcomes when replying: active, inactive

Worked examples, 5 compounds total:
O=S(=O)(O)C(F)(F)C(F)(F)C(F)(F)C(F)(F)C(F)(F)C(F)(F)F	inactive
C=CC(=O)NCNC(=O)C=C	inactive
Nn1cnnc1	inactive
CCC(C)(CC)c1cc(NC(=O)c2c(OC)cccc2OC)on1	inactive
C1CC2OC2CC1C1CO1 (stereo unspecified)	inactive

Check the results log: what was the call for Clc1ccc(C(c2ccccc2Cl)C(Cl)(Cl)Cl)cc1 (stereo unspecified) ?
active

Check the results log: what was the call for O=C(N[C@H]1CN2CCC1CC2)c1cc2ccoc2cn1 ?
inactive

Check the results log: what was the call for COS(=O)(=O)OC ?
inactive

Check the results log: what was the call for ClC1=C(Cl)[C@]2(Cl)[C@@H]3[C@@H]4C[C@@H]([C@H]5O[C@@H]45)[C@@H]3[C@@]1(Cl)C2(Cl)Cl ?
inactive

Check the results log: what was the call for CCOCCOC(C)=O ?
inactive

Check the results log: what was the call for CCOC(=O)C(O)(c1ccc(Cl)cc1)c1ccc(Cl)cc1 ?
active

Check the results log: what was the call for CCCCCCOC(=O)c1ccccc1C(=O)OCCCCCC ?
active

Check the results log: what was the call for ClC(Cl)=C(c1ccc(Cl)cc1)c1ccc(Cl)cc1 ?
active

Check the results log: what was the call for Cc1cc(O)ccc1Cl ?
inactive

Check the results log: what was the call for COc1ccc(O)c(C(C)(C)C)c1 ?
inactive

Check the results log: what was the call for CC(C)C(=O)OCC(C)(C)C(OC(=O)C(C)C)C(C)C (stereo unspecified) ?
inactive

Check the results log: what was the call for CN(C)c1nc(=O)n(C2CCCCC2)c(=O)n1C ?
inactive

Check the results log: what was the call for CCC(C)(c1ccc(O)cc1)c1ccc(O)cc1 ?
inactive

Check the results log: what was the call for CCSC(=O)N(CC)C1CCCCC1 ?
inactive

Check the results log: what was the call for O=S(=O)(O)C(F)(F)C(F)(F)C(F)(F)C(F)(F)F ?
inactive

Check the results log: what was the call for Cc1ccc(O)c(C)c1 ?
inactive

Check the results log: what was the call for Cc1cccc([N+](=O)[O-])c1 ?
inactive

Check the results log: what was the call for CCCCCCCCCc1ccc(O)cc1 ?
active

Check the results log: what was the call for Cc1ccccc1O ?
inactive

###

Assay: CCTE_Shafer_MEA_dev_interburst_interval_mean: CCTE's Neural Network Formation Assay for Mean Interburst Interval, Shafer Lab (AID 2284046);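 note: well-mean interburst interval of bursting electrodes as AUC over four recording days; curve fitted for decrease in interburst interval relative to DMSO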
Method: CCTE_Shafer_MEA_dev assay is conducted using Axion Biosystems 48 well microelectrode array (MEA) plates and Maestro recording system. Each well of the MEA plate contains a grid of 16 microelectrodes embedded in the culture surface. Electrically active cells, such as neurons, can be cultured over the electrodes, and electrical activity in these cells can be recorded extracellularly. […]
Calls of active or inactive are those of the source. Rule for the calls: active = hit-call score of the fitted dose curve at least 0.9, where 1 is the maximum; inactive = score below 0.9.
Use one of these outcomes when replying: yes for active, no for inactive

Worked examples, 7 compounds total:
COc1ccc(O)c(C(C)(C)C)c1	no
ClC1=C(Cl)[C@]2(Cl)[C@@H]3[C@@H]4C[C@@H]([C@H]5O[C@@H]45)[C@@H]3[C@@]1(Cl)C2(Cl)Cl	no
ClC1=C(Cl)[C@]2(Cl)[C@@H]3[C@@H](Cl)[C@H]4O[C@H]4[C@@H]3C1(Cl)C2(Cl)Cl	no
c1cc2ccc3cccc4ccc(c1)c2c34	no
NS(=O)(=O)C(F)(F)C(F)(F)C(F)(F)C(F)(F)C(F)(F)C(F)(F)C(F)(F)C(F)(F)F	no
O=C(O)C(F)(F)C(F)(F)C(F)(F)C(F)(F)C(F)(F)F	no
Clc1ccc(C(c2ccccc2Cl)C(Cl)(Cl)Cl)cc1 (stereo not drawn)	yes

# input for lookup
Check the results log: what was the call for O=S(=O)(O)C(F)(F)C(F)(F)C(F)(F)C(F)(F)C(F)(F)C(F)(F)F ?
no

###

read-out: Insulin Like Growth Factor 1 (IGF1), IGF1 (gene 3479); assay: LTEA_HepaRG_IGF1: Life Technologies and Expression Analysis (LTEA) Assay for Insulin Like Growth Factor 1 (IGF1) using HepaRG (AID 2283506); conditions: mRNA level, 48 h; actives raise or lower the signal
Activity calls are given as the source filed them. The calls were made as follows: active = hit-call score of the fitted dose curve at least 0.9, where 1 is the maximum; inactive = score below 0.9.
readout: AC50

CC(C)(O)C(=O)Nc1ccc([N+](=O)[O-])c(C(F)(F)F)c1	0.0443 µM (active)
CCNc1nc(NC(C)C)nc(SC)n1	33.2 µM (active)
Cc1cc(O)ccc1Cl	inactive
O=NN(c1ccccc1)c1ccccc1	inactive

Answer for every listed entry: what is its AC50? The entries follow.
1. CC1=C2C[C@H]3[C@@H](CC=C4C[C@@H](O)CC[C@@]43C)[C@@H]2CC[C@]12O[C@@H]1C[C@H](C)CN[C@H]1[C@H]2C
2. Cc1ccccc1CO[C@@H]1C[C@@]2(C(C)C)CC[C@]1(C)O2
3. Cc1cc(-c2ccc(N)c(C)c2)ccc1N
4. CCCCCCOC(=O)c1ccccc1C(=O)OCCCCCC
5. O=C(NC(=O)c1cc(F)c(F)cc1Cl)Nc1cc(F)ccc1N1CCC(C(=O)O)CC1
6. CCC(C)(CC)c1cc(NC(=O)c2c(OC)cccc2OC)on1
7. CCOCCOC(C)=O

1: inactive; 2: inactive; 3: inactive; 4: inactive; 5: inactive; 6: 1.79 µM (active); 7: inactive

Answer for every listed entry: what is its AC50? The entries follow.
1. CN(C)c1nc(=O)n(C2CCCCC2)c(=O)n1C
2. COc1ccc(O)c(C(C)(C)C)c1
3. ClC1=C(Cl)[C@]2(Cl)[C@@H]3[C@H]4C[C@H]([C@@H]5O[C@H]45)[C@@H]3[C@@]1(Cl)C2(Cl)Cl
4. C1CC2OC2CC1C1CO1 (configuration not stated)
5. N#Cc1ccc(N(CC(N)=O)CC(F)(F)F)cc1C(F)(F)F
6. O=S(=O)(O)C(F)(F)C(F)(F)C(F)(F)C(F)(F)F

inactive
inactive
5.52 µM (active)
inactive
inactive
inactive

Answer for every listed entry: what is its AC50? The entries follow.
1. c1ccc(-c2ccccc2)cc1
2. O=S(=O)(O)C(F)(F)C(F)(F)C(F)(F)C(F)(F)C(F)(F)C(F)(F)F
3. O=C(O)C(F)(F)C(F)(F)C(F)(F)C(F)(F)C(F)(F)F
4. CN(C)CCO

["inactive", "inactive", "inactive", "inactive"]

Fill in AC50 for record Oc1c(Cl)c(Cl)c(Cl)c(Cl)c1Cl
6.52 µM (active)
